test: yeast display, Sf9 membrane polyspecificity reagent, FACS + sequencing; frameworks hold sequencing errors
Endpoint: polyreactivity (PSR sort gate)

Answered examples (5):
| Sequence | Endpoint | Result value |
| --- | --- | --- |
| QVQLVESGGALVQAGGSLRLSCAASRFTFTRYVMGWYSQAPGKERELVAAISINGGRTYYADSVKGRFTISRDNAKNTVYLQMNSLKPEDTAVYDCAAERYYWYTEMGYWGQGTQVTVSS | polyreactivity (PSR sort gate) | high polyreactivity |
| QVQLVESGGGLVQAGGSLRLSCAASGSIFPYYTMGWYRQAPGKERELVAGISSGGSTNYADSVKGRFTISRDNAKNTVYLQMNSLKPEDTAVYYCNARRYWLRYDYWGQGTQVTVSS | polyreactivity (PSR sort gate) | low polyreactivity |
| QVQLVESGGGLVHAGGSLRLSCADSGSTLGSNAMGWYRQAPGKERELVAAITWSGGTTYYADSVKGRFTISRDNAKNTVYLQMNSLKPEDTAVYYCATGQSVIYRYEYWGQGTQVTVSS | polyreactivity (PSR sort gate) | low polyreactivity |
| QLQLVESGGGLVQAGGSLRLSCGASGFTFYVYAMGWSRQAPGKERELVAAISKSGGSTYYADSVKGRFTISRDHATNTVDLQMTSLKPEDTAVYSCAVFDNRSGYRGGHRYNSWGQATQVTVSS | polyreactivity (PSR sort gate) | high polyreactivity |
| QVQLVESGGGLVQAGGSLRLSCAASGRTFIYYAMGWYRQAPGKERELVAAITNRGGRTYYADSVKWRFTISRDNAKYTVYLQMNSLKPEDTAVYYCNRVGTYHSYDYWGQGTQVTVSS | polyreactivity (PSR sort gate) | high polyreactivity |

Short answer for QVQLVESGGGLVQAGGSLRLICAASGSKFSSYCMGWYRQATGQEMELVAAISKRGGSTYYADTVKGRFTISRDNAKNTVYLQMNSLKPEDTAVYYCAAAVSIQGYSTLFDYWGQGTQVTVSS : polyreactivity (PSR sort gate) was high polyreactivity

Short answer for QEQLQESGSGLVQAGGSLRLSCAASGNIFRDWVMGWYRQAPGKERELVAAISPGAITYYADSVKGRFTISRDNAKNTVYLQTNSLKPEDTEVYYCAAYYIVEYLHGYWGQGTRVTVSS : polyreactivity (PSR sort gate) was low polyreactivity

Short answer for QVQLVESGGGLVQAGGSLRLSCAASGSIFATYAMGWYRQAPGKERELVAAITSSDGSTNYADSVKGRFTISRDNAKNTVYLQMNSLKPEDTAVYYCATDAPDRTDSDSGFDAGYDYWGQGTQVTLSS : polyreactivity (PSR sort gate) was low polyreactivity

Short answer for QVQLQESGGGLVQAGGSLRLSCAPSGTITVLYKMGWFRQAPGKEGEFVASINYGTSTYYADSVKGRFTVSRDRAKNTVYLQMNSLKPEDTAVYYCAAAYRWQDVYRYWGQGTQVTVSS : polyreactivity (PSR sort gate) was low polyreactivity

Short answer for QVQLVESGGGLVQAGGSLRLSCAASGRIFYRNAMGWYRQAPGKEREFVAAISSGGSTYYADSVKGRFTISRDNAKNTVYLQMNSLKPEDTAVYYCATRSPERRVYYTYSGLFDYWGQGTQVTVSS : polyreactivity (PSR sort gate) was high polyreactivity

Short answer for QVQLVESGGGLVQAGGSLRLSCAASGSTFNKYAMVWYRQAPGKERELVAAITGSGGRTYYADSVKGRFTISRDTAKNTVYLQMNSLKPEHTAVYYCNAGITHGYDYWGQGTQVSVSS : polyreactivity (PSR sort gate) was high polyreactivity

* * *

assay: yeast display, Sf9 membrane polyspecificity reagent, FACS + sequencing; frameworks hold sequencing errors
Endpoint: polyreactivity (PSR sort gate)

| Sequence | polyreactivity (PSR sort gate) |
| --- | --- |
| QVQLVESGGGLVQAGGSLRLSCAASGRIFSLYAMGWYRQAPGKERELVAVITYRGGDSTYYADSVKGRFTISRDNAKNTVYLQMNSLKPEDTAVYYCAAGQPLYQRRHSSRTYYYWGQGTQVTVSS | high polyreactivity |
| QVQLVESGGGLVQAGGSLRLSCAASGIILPYYVMGSYRPAPGKERELVAAISSGGRTYYADSVKGRFTISRDNAKNTVYLQMNSLKPEDTAVYYCNAYFTGKWYDYWVQGTQVTVSS | high polyreactivity |
| QVQLVESGGGLVQAGGSLRLSCAASGITFSVYAMGWYRQAPGKEWELVASISSGGTSTYYADSVKGRFTISRDNAKNTVYLQMNSLKPEDTAVYYCAAYSYYTGDQYSYDYWGQGTQVTVSS | low polyreactivity |
| QVQLVESGGGLVQAGGSLRLTCAASGSNFVYNAMGWYRQAPGKERELVAAISSRGGSTYYADSVKGRFTISRDNAKNTVYLQMKSLKPEDTAVYYCNAYGPRAYRGGSWGQGTQVTVSS | high polyreactivity |
| QVQLVESAGGLVQAGGSLRLSCAASGYTFDFYAMGWYRQAPGKERELVAAISKNDGTTYYADSVKGRFTISRDNAKNTVYLQMNSLKPEDTAVYYCAAESGYPVYTYVSSGDYWGQGTQVTVSS | low polyreactivity |

Shift focus to the following entry.
Short answer for QVQLVESGGGLVQAGGSLRLSCAASGYTFFYMGWYRQAPGKEREFVAVITYSGGSTYYADSVKGRFTISRDNAKNTVYLQMNSLKPEDTAVYYCAAAVWHYGRPGYLDSGYDYWGQGTQVTVSS : polyreactivity (PSR sort gate) was low polyreactivity

* * *

assay: yeast display, Sf9 membrane polyspecificity reagent, FACS + sequencing; frameworks hold sequencing errors
Endpoint: polyreactivity (PSR sort gate)

Answered examples (5):
| Sequence | polyreactivity (PSR sort gate) |
| --- | --- |
| QVQLVESGGGLVQAGGSLRLSCAASGRTLYSYAMGWYRQAPGKERELVAAITSGGRTYYADSVKGRFTISRDNAKNTVYLQMNRLTPEDTAVYYCNDRRTFPRYDRNYESWGQGTQVTVSS | high polyreactivity |
| QVQLVESGGGLVQAGGSLRLSCAASGNIFWLNAMGWYRQAPGKEREFVADITWSTGSTYYADSVKGRFTISRDNAKNTVYLQMNSLKPEDTAVYYCAADDGYFNYLILRFKYLYDYWGQGTQVTVSS | low polyreactivity |
| QVQLVESGGGLVQAGGSLRLSCAASGRIFVINAMGWYRQAPGKERELVAAISQSGGSTYYADSVKGRFTISRDNAKNNVYLQMNSLKPEDTAVYYCNALSNVPYDYWGQGTQVTVSS | low polyreactivity |
| QVQRVESGGGLVQAGGSLRLSCAASGRIFNWYVMGWKRQAPGKERELVAAINSGGITKYADSVKGRFTISRDNAKNTVYLQMNSLKPEDSAVYYCAAYYRRYDYDYWGQGTQVTVSS | high polyreactivity |
| QVQLVESGGGLVQAGGSLRLSCAASGSTFPVNAKGWYRPAPGKERQLVATIRWTGGGTYYADSVKGRFTISRDNAKNTVYLQMNSLKPEDTAVYYCAADPPWEWSDYGYDYWGQGTQVTVSS | low polyreactivity |

Short answer for EVQLVESGGGLVQAGGSLRLSCAASGRIFVHYAMGWYRQAPGKERELVAAITSGSSTNYADSVKGRFTISRDNAKNTVYLQMNSLKPEDTAVYYCAADYSVHRVRDRWFDYWGQGTQVTVSS : polyreactivity (PSR sort gate) was low polyreactivity

Short answer for QVQLVESGGGLVQAGGSLRLSCAASGYSFQKYGMGWYRQAPGKERELVAAITRSSGNTYYADSVKGRFTISRDTAKNTVYLQMNSLKPEDTAVYDCAAFYWGGVKYNYWGQGTQVTVSS : polyreactivity (PSR sort gate) was high polyreactivity

Short answer for QVQLVESGGGLVQAGGSLRLSCAASGRILQYNDMGWYRPAPGKERELVAAIDWSGGITYYADSVKGRFTISRDNAKNTVYLQMNSLKPEDTAVYYCNADFEYSYLYRMEYWGQGTQVTVSS : polyreactivity (PSR sort gate) was low polyreactivity

Short answer for QVQLVESGGGLVQAGGSLRLSCAASGRTFTGNAMGWYRQAPGKVRELVADINLSGGDTYYADSVKGRFTISRDNAKNTVYLQMNSLKPEDTAVYYCAADIVYSSDYGPGDYWGQGTQVTVSS : polyreactivity (PSR sort gate) was high polyreactivity

Short answer for QVQLVESGGGLVQAGGSLRLSCAASGGTFLFYGMGWYRQAPGNERELVAVITWSGGSTYYADSVKGRFTISRDTAKNTVYLHMNSLKPVDTAVYYCAADGYFYFDYPWMNYWGQGTQVTVSS : polyreactivity (PSR sort gate) was low polyreactivity

* * *

test: yeast display, Sf9 membrane polyspecificity reagent, FACS + sequencing; frameworks hold sequencing errors
Endpoint: polyreactivity (PSR sort gate)

Answered examples (5):
| Sequence | polyreactivity (PSR sort gate) |
| --- | --- |
| QVQLVESGGGLVQAGGSLRLSCAPSGRTFYYYAMGWYRQAPGKERELVAAISRGSTYYADSVKGRFTISRDNAKNTVYLQMNSLKPEDTAVYYCAARYHNYWNRYIYDYWGQGTQVTVSS | high polyreactivity |
| QVQLVESGGGLVQAGGSLRISCAASGSTFSYYAMGWYRQAPGKERELVAAISQTGGTTYYADSVKGRFTISRDNAKNTVYLQMNSLTPEDTAVYYSNAARPGGHYWGQGTQVTVSS | low polyreactivity |
| QVQLVESGGGLVQAGGSLRLSCAASGSIFASNAMGWYRQAPGTERELVAAIDTSGGSTYYADSVKGRFTISRDNAKNTVYLQMNSLKPEDTAVYYCNTDWRDEYYPRYRASKFDYWGQGTQVTVSS | low polyreactivity |
| QVQLEESGGGLVQAGGSLRLSCAASGSTFKYYAMGWYRQAPGKERELVAAISWSGGSTYYADSVKGRFTISRDNAKNTVYLQMNRLKPEDTAVYYCNKLIYDEDEYWGQGTQVTVSS | high polyreactivity |
| QVHLVESGGGLVQAGGSLRLSCAASGFTFYSYAMGWYRPPPGKEREFVAAITIGGGSTNYADSVKGRFTISRDIAKNTVYLQMNSLKPEDTAVYYCNVDYTLHFGYWGQGTQVTVSS | low polyreactivity |

Short answer for QVQLVESGGGLVQAGGSLRLSCAASGSLFERYAMGWNRQAPGKEREFVATITSGGGRTYYADSVKGRFTISRDNAKNTVYLQMNSLKPEDTAVYYCNAVYRARSYDYWGQGTQVTVSS : polyreactivity (PSR sort gate) was high polyreactivity
